Here we list compounds with their recorded IC50 when tested on UniProt P06746.

## Input Would you mind telling me what IC50 value was observed for COc1ccc(C2C3C(=O)CC(C)(C)CC3=Nc3ccccc3N2C(C)=O)cc1OCc1ccccc1 (configuration not stated) ?
## Output > 100 µM

## Input Would you mind telling me what IC50 value was observed for CC(=O)N1c2ccccc2N=C2CC(C)(C)CC(=O)C2C1c1ccc(Cl)cc1Cl (configuration not stated) ?
## Output > 100 µM

###

# MEASURED_TARGET: DNA polymerase alpha catalytic subunit (Homo sapiens, UniProt P09884)
# Sequence (P09884 whole entry): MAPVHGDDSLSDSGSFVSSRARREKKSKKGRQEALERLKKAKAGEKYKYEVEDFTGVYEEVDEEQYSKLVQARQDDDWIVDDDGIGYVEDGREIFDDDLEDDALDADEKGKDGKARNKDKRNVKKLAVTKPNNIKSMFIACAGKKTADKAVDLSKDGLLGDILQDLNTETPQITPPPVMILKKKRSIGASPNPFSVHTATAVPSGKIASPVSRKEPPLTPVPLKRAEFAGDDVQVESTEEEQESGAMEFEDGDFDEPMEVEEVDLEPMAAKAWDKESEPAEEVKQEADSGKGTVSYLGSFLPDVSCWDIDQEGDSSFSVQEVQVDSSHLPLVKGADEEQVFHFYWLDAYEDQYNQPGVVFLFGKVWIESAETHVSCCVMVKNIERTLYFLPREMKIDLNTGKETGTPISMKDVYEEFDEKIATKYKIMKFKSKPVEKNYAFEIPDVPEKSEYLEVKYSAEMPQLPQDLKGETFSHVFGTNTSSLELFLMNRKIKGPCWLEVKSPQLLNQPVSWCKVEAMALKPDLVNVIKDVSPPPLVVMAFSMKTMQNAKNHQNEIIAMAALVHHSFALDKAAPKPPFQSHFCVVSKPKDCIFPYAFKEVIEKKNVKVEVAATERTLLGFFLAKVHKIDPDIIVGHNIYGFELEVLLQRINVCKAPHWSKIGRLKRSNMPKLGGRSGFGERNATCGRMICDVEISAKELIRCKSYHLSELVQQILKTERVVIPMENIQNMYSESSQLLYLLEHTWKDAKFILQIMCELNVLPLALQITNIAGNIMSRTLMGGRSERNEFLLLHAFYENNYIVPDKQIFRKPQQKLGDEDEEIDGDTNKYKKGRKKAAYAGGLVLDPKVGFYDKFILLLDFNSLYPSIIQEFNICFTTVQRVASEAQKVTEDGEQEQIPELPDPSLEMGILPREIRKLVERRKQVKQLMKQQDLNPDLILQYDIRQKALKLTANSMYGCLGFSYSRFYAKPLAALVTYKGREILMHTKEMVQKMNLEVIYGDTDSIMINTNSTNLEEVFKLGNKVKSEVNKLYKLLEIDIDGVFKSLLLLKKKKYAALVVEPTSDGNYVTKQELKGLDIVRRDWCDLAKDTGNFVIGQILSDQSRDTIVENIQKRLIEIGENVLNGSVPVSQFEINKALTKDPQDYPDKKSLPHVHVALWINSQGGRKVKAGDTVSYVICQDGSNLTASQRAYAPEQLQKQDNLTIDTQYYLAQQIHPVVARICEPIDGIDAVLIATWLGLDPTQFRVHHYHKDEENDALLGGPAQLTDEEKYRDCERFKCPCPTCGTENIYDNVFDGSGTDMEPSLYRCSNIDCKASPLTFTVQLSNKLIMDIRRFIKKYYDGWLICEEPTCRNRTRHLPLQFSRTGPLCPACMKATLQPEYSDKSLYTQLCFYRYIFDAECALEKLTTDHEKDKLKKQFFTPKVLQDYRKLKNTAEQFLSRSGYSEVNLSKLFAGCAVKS
# ASSAY_NOTES: Inhibition of human DNA polymerase alpha
Consider the following compounds; for each one, report its IC50.

## Input Request: IC50, test system DNA polymerase alpha catalytic subunit (Homo sapiens, UniProt P09884), entry CC(=O)N1c2ccccc2N=C2CC(C)(C)CC(=O)C2C1c1ccc(Cl)cc1Cl (configuration not stated)
## Output > 100 µM

## Input Request: IC50, test system DNA polymerase alpha catalytic subunit (Homo sapiens, UniProt P09884), entry COc1ccc(C2C3C(=O)CC(C)(C)CC3=Nc3ccccc3N2C(C)=O)cc1OCc1ccccc1 (configuration not stated)
## Output > 100 µM

###

# MEASURED_TARGET: Translocator protein (Homo sapiens, UniProt P30536)
# Sequence (P30536 whole entry): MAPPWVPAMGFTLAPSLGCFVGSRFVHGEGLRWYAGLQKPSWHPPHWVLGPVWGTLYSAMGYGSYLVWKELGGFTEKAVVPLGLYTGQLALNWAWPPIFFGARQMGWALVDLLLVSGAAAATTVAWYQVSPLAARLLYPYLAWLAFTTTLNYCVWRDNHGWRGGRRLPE
# ASSAY_NOTES: Inhibition of peripheral benzodiazepine BZD receptor by radioligand binding assay
ATTRIBUTE_MEASURED: IC50

## Input Would you mind telling me what IC50 value was observed for CC(=O)N1c2cccc(O)c2N=C2CC(C)(C)CC(=O)C2C1c1ccc(OCc2ccccc2)cc1Cl (stereo unspecified) ?
## Output > 30 µM
